# Tested on: PC-3 prostate
# Test Protocol: NCI tumour cell line growth inhibition, 48 h
Reported TGI values for the following compounds.

>>> experimental_value("COc1cc(OC)c(OC)cc1/C=C\\c1ccnc2ccccc12")
"> 100 µM"

Field TGI (entry `CCCCCCCC(=O)OC[n+]1cccc(-c2c(COC(=O)NC(C)C)c(COC(=O)NC(C)C)c3n2CCC3)c1` ) reads > 100 µM

Note to self: TGI recorded for `CC(C)(C)OC(=O)CC(S(=O)(=O)c1ccccc1)S(=O)(=O)c1ccccc1` was 29.7 µM

---

Below, each entry is listed alongside its reported TGI.
# System: NCI-H522 lung
# Test Protocol: NCI tumour cell line growth inhibition, 48 h

Use these answered entries as a reference point.
>>> experimental_value("O=C(NCCNC1=CC(=O)c2nc3ccccc3c3ccnc1c23)c1cnccn1")
"> 100 µM"
>>> experimental_value("Cc1ccccc1NC(=O)C(=O)CC(=O)c1sc(-n2nc(-c3ccccc3)cc2-c2ccccc2)nc1C")
"> 100 µM"
>>> experimental_value("Cc1cc(C)nc(NS(=O)(=O)c2ccc(NC(=O)c3ccc4nc5ccccc5c(Nc5ccc(S(=O)(=O)N=C(N)N)cc5)c4c3)cc2)n1")
"> 100 µM"
>>> experimental_value("O=C1Cc2c([nH]c3ccccc23)-c2cc(Br)ccc2N1")
"> 100 µM"
>>> experimental_value("CNC(=O)N(CCCCC(NC(C)=O)C(=O)NCc1ccccc1)Cc1ccccc1 (configuration not stated)")
"> 100 µM"

Quick note, TGI for `CC1(C)N=C(N)N=C(N)N1c1ccc(CCCCCCc2ccc(S(=O)(=O)F)cc2)cc1` landed at 20.2 µM

For this compound ( `O=C(Nc1ccc(-n2cc(-c3ccncc3)c(-c3ccc(Cl)c(O)c3)n2)cc1)c1ccc(Cl)c(Cl)c1` ), measured TGI is > 100 µM

Recorded result, `CCOC(=O)c1cnc2c(ccc3ncccc32)c1OCC` , TGI: > 100 µM

Short answer for `N#CC(C#N)=C/C=C/c1ccccc1[N+](=O)[O-]` : TGI was > 10 µM

// field: TGI; key: `CSC1=C(C)C(/C=N/Nc2ccc([N+](=O)[O-])cc2)=C(C)N(c2ccccc2)S1(=O)=O` ; value = > 100 µM

response.value for `COc1cc(C(=O)/C=C/c2c(C)n([O-])c3ccc(Cl)cc3[n+]2=O)cc(OC)c1OC` (field: TGI) = 2.8 µM

// field: TGI; key: `CCOC(=O)CSc1nc(-c2ccc(Cl)cc2)c(C#N)c(=O)[nH]1` ; value = > 100 µM

---

Some compounds, each annotated with its measured TGI.
# Tested on: RXF 393 renal
# Test Protocol: NCI tumour cell line growth inhibition, 48 h

Record COC(=O)C1C(=O)NC2(C)CC1c1ccccc1O2 (stereo not drawn) . Reported TGI: > 100 µM

TGI for COc1ccc(C2C(C(=O)O)=C(COC(C)=O)Oc3cc4c(cc32)OCO4)c(OC)c1 (stereo not drawn) is > 100 µM

The reported TGI of the compound `COc1ccccc1-c1cc(=O)c2cccnc2[nH]1` was > 100 µM

Briefly, TGI measured for CCOC1OC(C)(C=C(C#N)C#N)CCC1C (stereo not drawn) : > 91.7 µM

Form: compound = `CN(C)CCC(/C=C/c1ccccc1)=N\Nc1c(F)c(F)c(F)c(F)c1F` ; TGI = > 100 µM

GET /value?item= CCOC(=O)CCC(C(=O)OCC)n1nnc2cc(Nc3c(C)[n+]([O-])c4cc(Cl)ccc4[n+]3[O-])ccc21 (stereo not drawn) &field=TGI returns > 100 µM

# compound `Nc1ncnc2c1ncn2CCCNO` ; its TGI = > 100 µM

The compound identified as `Cc1cc(C)c(C2=NO[C@@H]3[C@H]2C(=O)C=C2N(Cc4ccccc4)CCO[C@@]23O)c(C)c1` registered its TGI at > 100 µM
